Target: human ornithine aminotransferase (hOAT) (Homo sapiens)
Construct: gene OAT; t-hOAT expressed as MBP fusion, MBP tag removed
Assay: crystal structure by soaking (~[…] Å); UV-Vis titration Kd
Assay type: binding
measurementType: pKd
# pKd: negative log10 of molar concentration; output just the value

So, NCCCC(=O)O [GABA, γ-aminobutyric acid] ? Its pKd was 3.96

###

Molecular target: human ornithine aminotransferase (hOAT) (Homo sapiens, UniProt P04181)
Construct: gene OAT; t-hOAT expressed as MBP fusion, MBP tag removed
Sequence (P04181 26-439 limits assumed): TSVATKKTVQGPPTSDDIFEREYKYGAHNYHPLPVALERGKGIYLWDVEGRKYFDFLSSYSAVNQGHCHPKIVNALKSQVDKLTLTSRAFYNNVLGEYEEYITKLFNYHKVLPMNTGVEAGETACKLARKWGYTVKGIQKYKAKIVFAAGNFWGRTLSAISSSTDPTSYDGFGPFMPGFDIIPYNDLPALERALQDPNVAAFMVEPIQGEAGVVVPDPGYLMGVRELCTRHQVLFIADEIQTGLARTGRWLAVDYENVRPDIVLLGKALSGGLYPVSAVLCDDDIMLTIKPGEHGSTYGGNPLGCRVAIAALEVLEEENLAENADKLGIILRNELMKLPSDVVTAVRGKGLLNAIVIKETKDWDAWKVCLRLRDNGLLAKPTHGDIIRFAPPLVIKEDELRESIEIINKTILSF
Experiment: crystal structure by soaking (~[…] Å); stopped-flow kinetics Kd
Assay type: biochemical
measurementType: pKd
# pKd: negative log10 of molar concentration; output just the value

So, NCCCCC(=O)O ? Its pKd was 3.13
